experimental system: UniProt Q9NR96
Sequence (Q9NR96 26-1032): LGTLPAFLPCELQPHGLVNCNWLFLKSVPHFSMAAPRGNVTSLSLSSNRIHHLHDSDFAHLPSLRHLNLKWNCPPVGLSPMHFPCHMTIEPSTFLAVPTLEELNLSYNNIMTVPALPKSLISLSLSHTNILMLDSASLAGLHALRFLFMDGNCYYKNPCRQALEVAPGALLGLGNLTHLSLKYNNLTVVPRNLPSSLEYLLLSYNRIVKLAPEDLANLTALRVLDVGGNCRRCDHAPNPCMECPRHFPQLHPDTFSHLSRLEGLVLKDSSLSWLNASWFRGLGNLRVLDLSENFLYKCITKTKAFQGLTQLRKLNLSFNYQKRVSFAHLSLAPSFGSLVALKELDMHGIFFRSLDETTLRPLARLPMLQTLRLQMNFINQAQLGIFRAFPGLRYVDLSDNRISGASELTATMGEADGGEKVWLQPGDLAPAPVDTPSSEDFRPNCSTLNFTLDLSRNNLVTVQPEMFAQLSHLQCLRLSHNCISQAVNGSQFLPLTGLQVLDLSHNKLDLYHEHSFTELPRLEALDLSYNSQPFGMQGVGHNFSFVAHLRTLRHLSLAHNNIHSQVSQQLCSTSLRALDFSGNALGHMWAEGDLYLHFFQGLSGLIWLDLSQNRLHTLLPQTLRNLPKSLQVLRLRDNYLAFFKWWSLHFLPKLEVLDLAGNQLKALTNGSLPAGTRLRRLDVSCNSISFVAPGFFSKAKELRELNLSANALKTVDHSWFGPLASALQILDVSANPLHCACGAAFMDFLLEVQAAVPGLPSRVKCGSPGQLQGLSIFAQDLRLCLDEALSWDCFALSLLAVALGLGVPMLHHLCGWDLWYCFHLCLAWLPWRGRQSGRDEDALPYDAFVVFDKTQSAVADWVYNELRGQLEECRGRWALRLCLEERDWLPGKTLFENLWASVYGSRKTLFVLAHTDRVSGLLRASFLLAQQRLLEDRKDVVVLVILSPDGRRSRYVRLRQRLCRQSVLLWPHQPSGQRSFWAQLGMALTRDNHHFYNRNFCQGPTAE
assay notes: TLR9 inhibition reporter assay (HEK-Blue cells, SEAP reporter, ODN2006 stimulation);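 also: compounds tested over 0.05 nM to 50 µM, 22 h incubation, inhibition taken as SEAP signal drop from agonist plus DMSO wells toward a known inhibitor control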
protocol conditions: read-out: TLR9 IC50, HEK-Blue cells overexpressing human TLR9, ODN2006 5 nM
Answer each item with its documented IC50.
Give your result in nM as a bare value.

**Q:** Read off the recorded IC50 for CCN(C)CC(=O)N1CCC(c2ccc3[nH]c(-c4cc(C)nc(C)c4)c(C(C)C)c3c2)CC1
**A:** 657

**Q:** Read off the recorded IC50 for CCOCCN1CCC(c2ccc3[nH]c(-c4ccnc(C)c4)c(C(C)C)c3c2)CC1
**A:** 1450

**Q:** Read off the recorded IC50 for Cc1cc(-c2[nH]c3ccc(C4CCN(C(=O)CN5C[C@@H](C(F)(F)F)C[C@H]5CO)CC4)cc3c2C(C)C)cc(C)n1
**A:** 833

---

experimental system: human TLR7 (Homo sapiens (Human))
Sequence (Q9NYK1 27-1049): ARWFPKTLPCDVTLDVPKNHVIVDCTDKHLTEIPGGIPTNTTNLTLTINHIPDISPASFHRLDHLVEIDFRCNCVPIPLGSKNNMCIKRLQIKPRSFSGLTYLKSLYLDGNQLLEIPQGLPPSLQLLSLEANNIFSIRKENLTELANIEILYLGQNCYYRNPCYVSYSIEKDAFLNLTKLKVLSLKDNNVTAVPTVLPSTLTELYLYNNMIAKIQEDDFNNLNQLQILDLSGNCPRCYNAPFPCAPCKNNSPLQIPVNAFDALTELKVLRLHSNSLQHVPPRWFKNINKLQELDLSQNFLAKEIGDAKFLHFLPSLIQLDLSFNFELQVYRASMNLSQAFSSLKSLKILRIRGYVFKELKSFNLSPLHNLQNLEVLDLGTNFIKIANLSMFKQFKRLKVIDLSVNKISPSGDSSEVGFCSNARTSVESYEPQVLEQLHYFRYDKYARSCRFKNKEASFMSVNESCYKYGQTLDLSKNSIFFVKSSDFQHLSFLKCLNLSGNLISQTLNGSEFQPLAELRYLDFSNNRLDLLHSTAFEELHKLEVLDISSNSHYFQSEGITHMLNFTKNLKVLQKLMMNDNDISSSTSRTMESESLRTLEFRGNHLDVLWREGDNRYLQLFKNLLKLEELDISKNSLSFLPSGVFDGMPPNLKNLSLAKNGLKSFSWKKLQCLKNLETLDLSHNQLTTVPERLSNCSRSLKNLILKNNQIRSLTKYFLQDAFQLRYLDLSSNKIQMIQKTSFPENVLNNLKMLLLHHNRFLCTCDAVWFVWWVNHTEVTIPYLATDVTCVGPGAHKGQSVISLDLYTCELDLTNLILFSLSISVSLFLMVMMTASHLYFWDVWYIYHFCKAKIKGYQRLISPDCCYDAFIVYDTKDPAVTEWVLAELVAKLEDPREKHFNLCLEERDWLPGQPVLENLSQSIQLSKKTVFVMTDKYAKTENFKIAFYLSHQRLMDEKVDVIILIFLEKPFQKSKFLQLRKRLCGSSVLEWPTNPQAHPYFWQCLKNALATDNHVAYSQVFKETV
assay notes: TLR7 inhibition reporter assay (HEK-Blue cells, SEAP reporter, gardiquimod stimulation)
Type: cell-based
protocol conditions: HEK-Blue cells overexpressing human TLR7, gardiquimod 7.5 μM
reported metric: pIC50
Hey, just a heads up that pIC50 is the negative log base 10 of the concentration in molar.

**Q:** Read off the recorded pIC50 for Cc1cc(-c2[nH]c3ccc(C4CCN(CC(=O)N[C@H](C)C(F)(F)F)CC4)cc3c2C(C)C)cc(C)n1 [Example 252]
**A:** 8.08

**Q:** Read off the recorded pIC50 for Cc1cc(-c2[nH]c3ccc(C4CCN(C(=O)[C@@H](N)CCCNC(N)=O)CC4)cc3c2C(C)C)ccn1 [Example 564]
**A:** 6.69

**Q:** Read off the recorded pIC50 for Cc1cc(-c2[nH]c3ccc(C4CCN(C(=O)Cn5ncnn5)CC4)cc3c2C(C)C)cc(C)n1 [Example 155]
**A:** 8.57

**Q:** Read off the recorded pIC50 for Cc1cc(-c2[nH]c3ccc(C4CCN(C(=O)c5cccnc5)CC4)cc3c2C(C)C)cc(C)n1 [Example 113]
**A:** 8.23

**Q:** Read off the recorded pIC50 for CCc1c(-c2ccnc(C)c2)[nH]c2ccc(C3CCN(C(=O)C4CCCNC4)CC3)cc12 (centres unmarked) [Example 624]
**A:** 6.89

**Q:** Read off the recorded pIC50 for Cc1cc(-c2[nH]c3ccc(C4CCNCC4)cc3c2C(C)C)c(Cl)c(C)n1 [Example 50]
**A:** 8.49

**Q:** Read off the recorded pIC50 for Cc1cc(-c2[nH]c3ccc(C4CCN(C(=O)[C@@H](N)CCCCN)CC4)cc3c2C(C)C)ccn1 [Example 579]
**A:** 6.70

**Q:** Read off the recorded pIC50 for Cc1cc(-c2[nH]c3ccc(C4CCN(Cc5nncn5C)CC4)cc3c2C(C)C)c(F)cn1 [Example 737]
**A:** 7.84

**Q:** Read off the recorded pIC50 for CC(=O)N(C)CCC(=O)N1CCC(c2ccc3[nH]c(-c4cc(C)nc(C)c4)c(C(C)C)c3c2)CC1 [Example 134]
**A:** 7.94

**Q:** Read off the recorded pIC50 for Cc1cc(-c2[nH]c3ccc(C4CCN(CC(=O)NCCC(C)(C)C)CC4)cc3c2C(C)C)cc(C)n1 [Example 236]
**A:** 7.33

**Q:** Read off the recorded pIC50 for Cc1cc(-c2[nH]c3ccc(C4CCN(CC(=O)N5C[C@H](C)C[C@@H]5CO)CC4)cc3c2C(C)C)cc(C)n1 [Example 290]
**A:** 7.92

**Q:** Read off the recorded pIC50 for CCc1c(-c2ccnc(N)c2)[nH]c2ccc(C3CCNCC3)cc12 [Example 69]
**A:** 6.56

**Q:** Read off the recorded pIC50 for Cc1cnc(F)cc1-c1[nH]c2ccc(C3CCNCC3)cc2c1C(C)C [Example 28]
**A:** 8.14

**Q:** Read off the recorded pIC50 for CC(C)c1c(-c2cc(C3CC3)ncc2F)[nH]c2ccc(C3CCN(CC(=O)N(C)C)CC3)cc12 [Example 515]
**A:** 7.70

**Q:** Read off the recorded pIC50 for Cc1cc(-c2[nH]c3ccc(C4CCN(Cc5ccn[nH]5)CC4)cc3c2C(C)C)c(F)cn1 [Example 682]
**A:** 8.12

**Q:** Read off the recorded pIC50 for Cc1cc(-c2[nH]c3ccc(C4CCN(CC(=O)N5CC[C@H](O)C5)CC4)cc3c2C(C)C)cc(C)n1 [Example 273]
**A:** 8.82

**Q:** Read off the recorded pIC50 for CCc1c(-c2ccnc(C)c2)[nH]c2ccc(C3CCN(C[C@@H]4CCCN4C(C)C)CC3)cc12 [Example 741]
**A:** 6.77

**Q:** Read off the recorded pIC50 for Cc1cc(-c2[nH]c3ccc(C4CCN(C(=O)CN(C)C5CCS(=O)(=O)C5)CC4)cc3c2C(C)C)cc(C)n1 (centres unmarked) [Example 147]
**A:** 8.17

**Q:** Read off the recorded pIC50 for CNCC(=O)N1CCC(c2ccc3[nH]c(-c4cc(C)nc(C5CC5)c4)c(C(C)C)c3c2)CC1 [Example 508]
**A:** 8.06

**Q:** Read off the recorded pIC50 for Cc1nccc(-c2[nH]c3ccc(C4CCN(CC(=O)N(C)C)CC4)cc3c2C(C)C)c1F [Example 648]
**A:** 8.52

**Q:** Read off the recorded pIC50 for CNCC(=O)N1CCC(c2ccc3[nH]c(-c4ccnc(C)c4)c(C(C)C)c3c2)CC1 [Example 510]
**A:** 8.06

**Q:** Read off the recorded pIC50 for Cc1cc(-c2[nH]c3ccc(C4CCN(CC(=O)N5CCCC(F)(F)C5)CC4)cc3c2C(C)C)cc(C)n1 [Example 285]
**A:** 8.40

**Q:** Read off the recorded pIC50 for Cc1cc(-c2[nH]c3ccc(C4CCN(C(=O)CCO)CC4)cc3c2C(C)C)cc(C)n1 [Example 117]
**A:** 8.18

**Q:** Read off the recorded pIC50 for Cc1cc(-c2[nH]c3ccc(C4CCN(CC(=O)N(C)C5CCCCC5)CC4)cc3c2C(C)C)cc(C)n1 [Example 278]
**A:** 8.21

**Q:** Read off the recorded pIC50 for Cc1nc(CN2CCC(c3ccc4[nH]c(-c5ccnc(C6CC6)c5)c(C(C)C)c4c3)CC2)c[nH]1 [Example 484]
**A:** 7.11

**Q:** Read off the recorded pIC50 for Cc1cc(-c2[nH]c3ccc(C4CCN(C(=O)CNCC(C)(C)N5CCOCC5)CC4)cc3c2C(C)C)cc(C)n1 [Example 371]
**A:** 8.43

Ref: patent US10660877B2
